The measurements presented in this section are drawn from patent US20160257759A1.

// pEC50 lookup, one value per entry
# measuredTarget: T1, human JAG1 on cells (K562 cells; Calu-6 cells) (human, UniProt P78504 34-1218)
# T1 construct: whole, on cells; Calu-6 are called JAG-1 expressing cells; also called JAG-1 expressing cells
# T1 sequence (P78504 34-1218): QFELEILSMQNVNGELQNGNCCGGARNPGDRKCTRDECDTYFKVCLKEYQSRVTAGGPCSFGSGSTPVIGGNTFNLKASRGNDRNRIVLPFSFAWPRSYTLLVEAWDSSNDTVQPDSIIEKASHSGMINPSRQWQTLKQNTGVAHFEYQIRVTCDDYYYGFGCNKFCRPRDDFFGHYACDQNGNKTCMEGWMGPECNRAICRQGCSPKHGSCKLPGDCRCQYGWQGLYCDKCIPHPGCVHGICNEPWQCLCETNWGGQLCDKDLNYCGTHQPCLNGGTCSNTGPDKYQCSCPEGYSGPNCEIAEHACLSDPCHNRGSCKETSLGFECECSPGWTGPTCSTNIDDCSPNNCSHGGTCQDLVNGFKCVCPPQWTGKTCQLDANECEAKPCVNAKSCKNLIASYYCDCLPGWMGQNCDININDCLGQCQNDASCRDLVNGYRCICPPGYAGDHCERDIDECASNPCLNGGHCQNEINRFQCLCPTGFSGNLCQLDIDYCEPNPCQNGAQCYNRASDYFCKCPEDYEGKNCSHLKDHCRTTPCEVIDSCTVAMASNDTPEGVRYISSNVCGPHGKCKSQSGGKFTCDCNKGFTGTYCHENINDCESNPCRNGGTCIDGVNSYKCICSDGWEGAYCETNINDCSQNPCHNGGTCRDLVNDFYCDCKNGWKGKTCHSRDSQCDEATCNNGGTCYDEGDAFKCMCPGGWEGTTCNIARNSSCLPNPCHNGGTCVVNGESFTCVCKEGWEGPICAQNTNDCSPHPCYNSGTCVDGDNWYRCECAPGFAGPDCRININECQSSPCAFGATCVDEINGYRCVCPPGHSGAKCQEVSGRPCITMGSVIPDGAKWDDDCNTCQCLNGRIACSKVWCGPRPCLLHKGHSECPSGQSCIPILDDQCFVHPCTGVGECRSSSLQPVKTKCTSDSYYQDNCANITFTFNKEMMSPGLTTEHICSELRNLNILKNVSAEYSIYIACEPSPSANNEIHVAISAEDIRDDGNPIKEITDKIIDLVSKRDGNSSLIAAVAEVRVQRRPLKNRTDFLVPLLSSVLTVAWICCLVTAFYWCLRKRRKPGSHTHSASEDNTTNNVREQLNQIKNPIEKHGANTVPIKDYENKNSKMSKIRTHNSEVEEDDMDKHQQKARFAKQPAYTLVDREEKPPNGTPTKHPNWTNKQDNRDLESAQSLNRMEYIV
# testSummary: flow cytometry on K562 cells, IgG titrated, PE anti-human IgG, median fluorescence
pEC50: −log10 of the molar value.

{"binder": "JG1H7 (antibody, V domains shown, captured by anti-human Fc in the BiaCore assay) VH: QVQLVQSGGGLIQPGGSLRLSCAASAFTVSNFYMTWVRQAPGKGLEWVSVIDSGGNTYYADSVRGRFTISRDNSKNTLFLQMNSLRAEDTAVYYCARDLGYYYAMDVWGQGTTVTVSS VL: DIVMTQSPSSLSASVGDRVTITCRASQSISTSLNWYQQKPGKAPKLLIYAASSLQSGVPSRFSGSGSGTDFTLTISSLQPEDFATYYCQQSYSTPTFGQGTKLEIK", "reportedRelation": "=", "pEC50": 7.80}
{"binder": "JG1B10 (antibody, V domains shown, also called B10JAG1) VH: EVQLVESGGGLVQPGGSLRLSCAASGSTFSSYGMHWVRQAPGKGLEWVAVIWYDGSNKYYADSVKGRFTISRDNSKNTLYLQMNSLRAEDTAVYYCARGYNHDYWGQGTLVTVSS VL: LPVLTQPASVSGSPGQSITISCTGTSSDVGGYNYVSWYQQHPGKAPKLMIYDVSNRPSGVSNRFSGSKSGNTASLTISGLQAEDEADYYCSSYTSSSTYVFGIGTKLTVL", "reportedRelation": "=", "pEC50": 7.49}
{"binder": "JG1H11 (antibody, V domains shown) VH: EVQLVESGGGVVQPGRSLRLSCAASGFTFSSYGMHWVRQAPGKGLEWVAVISYDGSNKYYADSVKGRFTISRDNSKNTLYLQMNSLRAEDTAVYYCAKDDWNYALDYWGQGTLVTVSS VL: QPVLTQPASVSGSPGQSITISCTGTRSDVGGYSYVSWYQQHPGKAPKLIYDVTKRPSGVSNRFSGSKSGNTASLTISGLQAEDEADYYCSSYTSSSTYVFGTGTKVTVL", "reportedRelation": "=", "pEC50": 7.57}
{"binder": "JH1F4 (antibody, V domains shown, also called JH-F4) VH: QVQLVQSGAEVKKPGASVKVSCKASGYTFTSYAMHWVRHAPGQRLEWMGWINAGNGNTKYSQKFQGRVTITRDTSASTAYMELSSLRSEDTAVYYCARDLDYYYGMDVWGQGTTVTVSS VL: QPVLTQPPSASGTPGQRVTISCSGSSSNIGSNIVNWYQQLPGTAPKLLIYSNNRRPSGVPDRFSGSKSGSSASLAISGLQSEDEADYYCAAWDATLGGLYVFGTGTKVTVL", "reportedRelation": "=", "pEC50": 7.01}
{"binder": "JG1A7 (antibody, V domains shown) VH: QVQLVESGGGLVKPGGSLRLSCAASGFTFSDYYMSWIRQAPGKGLEWVSYISSSGSTIYYADSVKGRFTISRDNAKNSLYLQMNSLRAEDTAVYYCARVNSGYDAVDYWGQGTLVTVSS VL: QSALTQPPSVSGAPGQTVTISCTGSRSNIGTYDVHWYQQFAGSAPKLLIYHNNDRSSGVPDRFSGSKSGTSASLAITGLQAEDEAVYFCQSHDNVLGGVFGGGTKLTVL", "reportedRelation": ">", "pEC50": 9.00}
{"binder": "JG1C8 (antibody, V domains shown) VH: EVQLVQSGAEVKKPGSSVKVSCKASGGTFSSYAISWVRQAPGQGLEWMGWISAYNGNTNYAQKLQGRVTMTTDTSTSTAYMELRSLRSDDTAVYYCARSRYDFWSGYYSGMDVWGQGTTVTVSS VL: NFMLTQPRSVSGSPGQSVTISCTGTSSDVGGYHYVSWYQQHPGKAPKLIIYDVSRRPSGVPDRFSGSKSGNTASLTVSGLQAEDEADYYCSSYGGSNNFVFGTGTKLTVL", "reportedRelation": "=", "pEC50": 7.80}
